Test system: K86415-001-R-J1-PDC complex spheroids, viability;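 further: spheroids exposed to agents for seven days before readout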
Test Summary: Anticancer human tumor K86415-001-R-J1-PDC patient-derived lung adenocarcinoma cell line growth inhibition [RAS]; active means viability on the fitted dose curve at most 10% of control; inactive means the rest
Conditions Used: second compound 0.03 µM; first compound 10 µM
Thanks in advance; please answer with one of these: active, inactive

Answered cases to consult:
NC1c2ccccc2OC12CCN(c1cnc3c(N4CCCc5ncccc54)n[nH]c3n1)CC2 (stereo not drawn) + CCn1c(-c2cccnc2C(C)OC)c2c3cc(ccc31)N1CCOC(CC(NC(=O)C(C(C)C)N(C)C(=O)C3(F)CCN(C(=O)C#CC(C)(C)N(C)C)CC3)C(=O)N3CCCC(N3)C(=O)OCC(C)(C)C2)C1 :: active
CC(=O)OC12COC1CC(O)C1(C)C(=O)C(O)C3=C(C)C(OC(=O)C(O)C(NC(=O)OC(C)(C)C)c4ccccc4)CC(O)(C(OC(=O)c4ccccc4)C21)C3(C)C (stereo not drawn) + CCn1c(-c2cc(N3CCN(C)CC3)cnc2C(C)OC)c2c3cc(ccc31)-c1csc(n1)CC(NC(=O)C1CC1C)C(=O)N1CCCC(N1)C(=O)OCC(C)(C)C2 :: active

Status in this test for CC(Nc1ccc2c(c1)OCCn1cc(N3C(=O)OCC3C(F)F)nc1-2)C(N)=O (stereo not drawn) + CCn1c(-c2cccnc2C(C)OC)c2c3cc(ccc31)N1CCOC(CC(NC(=O)C(C(C)C)N(C)C(=O)C3(F)CCN(C(=O)C#CC(C)(C)N(C)C)CC3)C(=O)N3CCCC(N3)C(=O)OCC(C)(C)C2)C1 ?
active

Status in this test for C[C@@H](NC(=O)c1ncnc(N)c1Cl)c1ncc(C(=O)Nc2cc(C(F)(F)F)c(Cl)cn2)s1 + CCn1c(-c2cccnc2C(C)OC)c2c3cc(ccc31)N1CCOC(CC(NC(=O)C(C(C)C)N(C)C(=O)C3(F)CCN(C(=O)C#CC(C)(C)N(C)C)CC3)C(=O)N3CCCC(N3)C(=O)OCC(C)(C)C2)C1 ?
inactive

Status in this test for CC1(O)CCCC1n1c(=O)c(C(F)F)cc2cnc(NC3CCN(S(C)(=O)=O)CC3)nc21 (stereo not drawn) + CCn1c(-c2cc(N3CCN(C)CC3)cnc2C(C)OC)c2c3cc(ccc31)-c1csc(n1)CC(NC(=O)C1CC1C)C(=O)N1CCCC(N1)C(=O)OCC(C)(C)C2 ?
active
